Measured values drawn from PubChem BioAssay for this set.

# Tested on: PRMT1 (protein arginine N-methyltransferase 1)
# methodDescription: PRMT1 binders on small-molecule microarrays, primary screen, biochemical, small-molecule microarray, 635 nm fluorescence (AID 1088);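 also: binding of Prmt1 protein to compounds spotted on small-molecule microarray slides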
# testContext: small-molecule microarray binding, higher = more signal
observationType: composite z-score
One number for each entry.

[
  {
    "molecule": "CN1C(=O)C2C=CC(C(O)c3ccc([N+](=O)[O-])cc3)N(N3CCCCC3)C2C1=O (configuration not stated)",
    "composite z-score": 0.957
  },
  {
    "molecule": "COc1cc(COC(C)=O)ccc1OC(C)=O",
    "composite z-score": 0.491
  },
  {
    "molecule": "C[N+](C)(C)CCCCCCNC(=O)[C@@H]1C[C@@H]2C(=O)N[C@@H](Cc3ccccc3)C(=O)N2[C@@H]1c1cccc(OCCO)c1",
    "composite z-score": 1.57
  }
]

Please look at the items below and tell me composite z-score for each one, in order.
1. C=CCOC(=O)[C@H]1[C@@H]2C(=O)O[C@@H](c3ccccc3)[C@@H](c3ccccc3)N2[C@@H](c2ccc(OCCOC(=O)[C@H]3C[C@H]4C(=O)N[C@@H](CCCCN(C)C)C(=O)N4[C@H]3c3ccc(O)cc3)cc2)[C@]12C(=O)Nc1ccc(I)cc12
2. CN1C=C(C(=O)OCCS(C)(=O)=O)C(C(=O)OCCS(C)(=O)=O)=CC(c2ccc(CO)cc2)=CC1C1CC1 (configuration not stated)
3. O=C(NC1CC1)[C@@H]1c2ccccc2C(=O)N(Cc2ccccc2Cl)[C@H]1c1ccc(CO)cc1
4. C[N+](C)(C)CCCCNC(=O)[C@@H]1C[C@@H]2C(=O)N[C@@H](Cc3ccccc3)C(=O)N2[C@@H]1c1cccc(OCCO)c1

Reply text:
[1.55, 0.522, 1.54, 0.402]
